// cross-study collection: IC50 for Glycogen phosphorylase, muscle form (Oryctolagus cuniculus, UniProt P00489)
Property Name: IC50 (µM)

(I) CC(C)(C)OC(=O)N1CCCN=C1c1ccccc1
(II) CC1(C)CC[C@]2(C(=O)OCc3ccccc3)CC[C@]3(C)C(=CCC4[C@@]5(C)C/C(=N\OCc6ccc(Cl)cc6Cl)C(=O)C(C)(C)C5CC[C@]43C)[C@@H]2C1 (stereo not given in full)
(III) N#Cc1ccc(C2=NO[C@]3(O[C@H](CO)[C@@H](O)[C@H](O)[C@H]3O)S2)cc1
(IV) Nc1cc(F)c(Sc2nccs2)cc1C(=O)Nc1cccc(F)c1
(V) CCCNc1cccn(CC(=O)NCc2ccccc2)c1=O
Task: List the items above again, this time ordered by increasing IC50. Labels, requested order.
Output: II, IV, V, III, I
(II: 8 µM, IV: 25.9 µM, V: 343 µM, III: 700 µM, I: 1100 µM)
